test system: SW-620 colon; experiment: NCI-60 one-dose screen, 48 h; settings: 10 µM unless noted
Compounds without any hit were thinned out: in the full panel of roughly 83,000, 20% have a hit. Active and inactive are the calls of the source. How the source made its calls: active means growth percent below 10; inactive means the rest.
Respond only with the outcome that fits, drawn from label 1 (active), label 0 (inactive)

Query: Hi, sorry to bother you, what did the test record for `CNC(=O)c1ccccc1Nc1nc(Nc2ccc3c(c2OC)CCC[C@H](N2CCN(CCO)CC2)C3)ncc1Cl` ?
Result: label 1

Query: Hi, sorry to bother you, what did the test record for `O=c1[nH]c(N2CCOCC2)nc2scc(-c3ccccc3)c12` ?
Result: label 0

Query: Hi, sorry to bother you, what did the test record for `O=C(Nc1ccc(Nc2ncnc3sc4c(c23)CCOC4)cc1)Nc1ccc(Cl)c(C(F)(F)F)c1` ?
Result: label 0

Query: Hi, sorry to bother you, what did the test record for `COc1cnc2c(c1)C(=O)c1c-2n(CCCN2CCOCC2)c(=O)c2cc(Cl)ccc12` ?
Result: label 0

Query: Hi, sorry to bother you, what did the test record for Nc1cc2c(cc1Br)-c1c(C(=O)O)cccc1C2O (stereo not drawn) ?
Result: label 0

Query: Hi, sorry to bother you, what did the test record for `Cc1cc(-c2cc(OC(=O)c3ccccc3)ccc2Cl)cc2nnc(Nc3ccc(OCCN4CCCC4)cc3)nc12` ?
Result: label 0

Query: Hi, sorry to bother you, what did the test record for `CO[C@@H](C(=O)N1Cc2[nH]nc(NC(=O)c3ccc(N4CCN(C)CC4)cc3)c2C1)c1ccccc1` ?
Result: label 0

Query: Hi, sorry to bother you, what did the test record for O=C1CC(c2ccc(Cl)cc2)c2ncn(-c3cccc(Cl)c3)c2N1 (stereo not drawn) ?
Result: label 0

###

system: MALME-3M melanoma; experiment: NCI-60 one-dose screen, 48 h (100 = growth as untreated, 0 = no growth, -100 = all killed); settings: 10 µM unless noted
About 83,000 compounds went through this panel and 20% of them were active in at least one assay; those are over-represented in the sample as a whole.
Each record is given MET if its reported growth is strictly below -50%. Records at or above -50% are given NOT MET.

Query: Bench note: check whether `COc1cc2ncnc(Oc3cccc(NC(=O)Nc4cc(C(C)(C)C(F)(F)F)on4)c3)c2cc1OC` shows growth below -50%
Result: NOT MET

Query: Bench note: check whether `O=c1[nH]c([C@@H]2CCCN2)nc2c1oc1ccc(Cl)cc12` shows growth below -50%
Result: NOT MET

Query: Bench note: check whether `CCN(CC)CCNC(=O)c1c(C)[nH]c(/C=C2\C(=O)Nc3ccc(F)cc32)c1C` shows growth below -50%
Result: MET

Query: Bench note: check whether `CC(=O)OCCC/C(=C\c1ccc2ccccc2c1)[N+](=O)[O-]` shows growth below -50%
Result: MET

Query: Bench note: check whether `CCN(CC)CCOc1ccc(/C(=C(\C)c2ccc(Cl)cc2)c2ccc(Cl)cc2)cc1` shows growth below -50%
Result: NOT MET

###

system: K-562 leukemia; assay: NCI-60 one-dose screen, 48 h (100 = growth as untreated, 0 = no growth, -100 = all killed); conditions: 10 µM unless noted
This is part of a sample that, as a whole, favours compounds with a hit. Of some 83,000 tested, about 20% had one in any assay.
Please provide measured growth for the entries that follow.
Use % as the unit, but write only the number.

Query: Field request: growth | item: `CCCNC(=O)c1cn2ncnc(Nc3cc(C(=O)NC4CC4)ccc3C)c2c1C`
Result: 85

Query: Field request: growth | item: `Nc1ccc(S(=O)(=O)O)c2cc(S(=O)(=O)O)cc(O)c12`
Result: 117

Query: Field request: growth | item: O=C1C=CC2(NN=C(c3ccccc3)N2c2cccc(Cl)c2)C(Cl)=C1 (stereo not drawn)
Result: 28.6
